Test system: Escherichia coli TOP10;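 further: peptides expressed intracellularly from a pBAD plasmid library in pooled LB shake-flask culture, induced with 0.3% L-arabinose, DNA abundance read by NGS, three biological replicates, DESeq2 with apeglm shrinkage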
Protocol: shrunken log2 fold change of peptide-encoding DNA abundance (4.5 h post-induction vs induction); higher = less antimicrobial activity (less host growth inhibition)
Condition Parameters: time post-induction: 4.5 h; library: site-saturation at positions 5, 18, 19, 20
Quick rule for you: shrunken log2 fold change at -0.05 or higher means true (1), lower means false (0).

Evaluate `RRIRSRPPRLPRPRPRPSPEPRP` : shrunken log2 fold change at minimum -0.05?
true (1)

Subsequent entry: `RRIRWRPPRLPRPRPRPSDYPRP`
true (1)

Subsequent entry: `RRIRYRPPRLPRPRPRPVNNPRP`
false (0)

Subsequent entry: `RRIRPRPPRLPRPRPRPGGYPRP`
true (1)

Subsequent entry: `RRIRQRPPRLPRPRPRPNCAPRP`
true (1)

Subsequent entry: `RRIRSRPPRLPRPRPRPWIFPRP`
false (0)

Subsequent entry: `RRIRTRPPRLPRPRPRPTTQPRP`
false (0)

Subsequent entry: `RRIRHRPPRLPRPRPRPTIEPRP`
false (0)

Subsequent entry: `RRIRWRPPRLPRPRPRPHVLPRP`
false (0)

Subsequent entry: `RRIRHRPPRLPRPRPRPENRPRP`
true (1)

Subsequent entry: `RRIRSRPPRLPRPRPRPYPCPRP`
true (1)

Subsequent entry: `RRIRCRPPRLPRPRPRPSLCPRP`
false (0)

Subsequent entry: `RRIRRRPPRLPRPRPRPFNWPRP`
true (1)

Subsequent entry: `RRIRCRPPRLPRPRPRPMNEPRP`
false (0)

Subsequent entry: `RRIRPRPPRLPRPRPRPEFSPRP`
true (1)
